Target: T1, EsCas13d, nuclease-dead (Eubacterium siraeum, UniProt B0MS50, R295A;H300A;R849A;H854A)
T1 sequence: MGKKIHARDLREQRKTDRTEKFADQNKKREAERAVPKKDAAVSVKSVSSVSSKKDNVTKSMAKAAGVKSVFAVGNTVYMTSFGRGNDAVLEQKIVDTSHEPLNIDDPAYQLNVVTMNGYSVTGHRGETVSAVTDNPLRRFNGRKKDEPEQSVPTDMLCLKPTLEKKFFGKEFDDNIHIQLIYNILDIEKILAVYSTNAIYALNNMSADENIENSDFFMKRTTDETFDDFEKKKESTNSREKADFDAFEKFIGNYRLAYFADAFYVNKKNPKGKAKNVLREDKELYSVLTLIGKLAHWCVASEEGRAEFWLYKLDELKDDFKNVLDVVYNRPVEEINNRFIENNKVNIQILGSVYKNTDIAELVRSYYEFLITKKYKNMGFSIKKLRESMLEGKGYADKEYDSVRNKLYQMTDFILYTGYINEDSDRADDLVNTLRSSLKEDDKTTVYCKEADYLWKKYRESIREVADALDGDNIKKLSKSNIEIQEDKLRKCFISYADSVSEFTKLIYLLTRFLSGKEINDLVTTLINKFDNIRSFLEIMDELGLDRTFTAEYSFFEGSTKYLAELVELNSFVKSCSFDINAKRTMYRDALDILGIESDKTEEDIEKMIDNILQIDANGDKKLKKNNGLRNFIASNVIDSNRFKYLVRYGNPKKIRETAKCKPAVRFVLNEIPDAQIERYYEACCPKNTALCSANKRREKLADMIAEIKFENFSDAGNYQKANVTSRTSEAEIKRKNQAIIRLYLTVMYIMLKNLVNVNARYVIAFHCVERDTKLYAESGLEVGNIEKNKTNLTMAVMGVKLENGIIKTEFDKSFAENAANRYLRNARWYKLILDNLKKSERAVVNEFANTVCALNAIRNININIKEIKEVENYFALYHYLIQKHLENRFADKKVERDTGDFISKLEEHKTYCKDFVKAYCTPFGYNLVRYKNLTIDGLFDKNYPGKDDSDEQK
Assay: crRNA (strand 1, pre-loaded); Mg2+; 40 mM Tris-HCl pH 7.5, 150 mM NaCl, 6 mM MgCl2, 1 mM DTT, 0.1% Tween-20, 0.2 mg/ml BSA; 25 C; 10 min per concentration, then washed
Conditions: tags: His6-TwinStrep-SUMO cleaved; N-terminal SNAP kept (SNAP-Surface 488); label: 3' end held by stalled T7 RNA polymerase
Entries and their measured pKd follow.
The scale used: pKd is minus the common logarithm of the concentration in molar units.

* target 1 A1U,C6G (mixed) RNA 1: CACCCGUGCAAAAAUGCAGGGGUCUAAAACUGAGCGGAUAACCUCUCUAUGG RNA 2: GGGAAUGGAUCCACAUCUACGAAUUCGUACCAUAGAGAGGUUAUCGGCUCUCCGAGAUCGGAAGAGCACACGU | 7.92
* target 1 insA 3' of 22,insA 3' of 12 (mixed) RNA 1: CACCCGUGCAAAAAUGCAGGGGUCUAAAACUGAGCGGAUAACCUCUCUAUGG RNA 2: GGGAAUGGAUCCACAUCUACGAAUUCGUACACAUAGAGAGGAUUAUCCGCUCACCGAGAUCGGAAGAGCACACGU | 7.33
* target 2 MT 5'PFS UGG 3'PFS CCG (mixed) RNA 1: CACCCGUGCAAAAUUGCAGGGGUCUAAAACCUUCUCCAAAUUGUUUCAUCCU RNA 2: GGGAAUGGAUCCACAUCUACGAAUUCUGGAGGAUGAAACAAUUUGGAGAAGCCGAGAUCGGAAGAGCACACGU | 8.07
* target 1 insA 3' of 17,insA 3' of 11 (mixed) RNA 1: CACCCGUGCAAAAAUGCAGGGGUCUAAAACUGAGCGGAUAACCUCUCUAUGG RNA 2: GGGAAUGGAUCCACAUCUACGAAUUCGUACCAUAGAAGAGGUAUAUCCGCUCACCGAGAUCGGAAGAGCACACGU | 7.61
* target 1 G5C,A20U (mixed) RNA 1: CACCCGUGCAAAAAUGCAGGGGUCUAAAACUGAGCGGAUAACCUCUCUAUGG RNA 2: GGGAAUGGAUCCACAUCUACGAAUUCGUACCUUAGAGAGGUUAUCCCCUCACCGAGAUCGGAAGAGCACACGU | 7.20

input: Fill in pKd for record target 1 insA 3' of 22,insG 3' of 2 (mixed) RNA 1: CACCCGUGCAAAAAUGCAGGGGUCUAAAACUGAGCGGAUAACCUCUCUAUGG RNA 2: GGGAAUGGAUCCACAUCUACGAAUUCGUACACAUAGAGAGGUUAUCCGCUCGACCGAGAUCGGAAGAGCACACGU
output: 7.91

input: Fill in pKd for record target 1 insA 3' of 4,insG 3' of 3 (mixed) RNA 1: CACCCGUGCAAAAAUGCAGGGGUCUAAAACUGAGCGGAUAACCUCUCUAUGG RNA 2: GGGAAUGGAUCCACAUCUACGAAUUCGUACCAUAGAGAGGUUAUCCGCAUGCACCGAGAUCGGAAGAGCACACGU
output: 8.19

input: Fill in pKd for record target 1 G5U,C6G (mixed) RNA 1: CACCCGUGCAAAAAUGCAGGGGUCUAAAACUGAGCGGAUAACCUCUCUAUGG RNA 2: GGGAAUGGAUCCACAUCUACGAAUUCGUACCAUAGAGAGGUUAUCGUCUCACCGAGAUCGGAAGAGCACACGU
output: 8.02
